These entries and their values trace back to patent US10065990B2.

# assayed-target: HDAC3 (Homo sapiens, UniProt O15379)
# Sequence (O15379 whole entry, species assumed): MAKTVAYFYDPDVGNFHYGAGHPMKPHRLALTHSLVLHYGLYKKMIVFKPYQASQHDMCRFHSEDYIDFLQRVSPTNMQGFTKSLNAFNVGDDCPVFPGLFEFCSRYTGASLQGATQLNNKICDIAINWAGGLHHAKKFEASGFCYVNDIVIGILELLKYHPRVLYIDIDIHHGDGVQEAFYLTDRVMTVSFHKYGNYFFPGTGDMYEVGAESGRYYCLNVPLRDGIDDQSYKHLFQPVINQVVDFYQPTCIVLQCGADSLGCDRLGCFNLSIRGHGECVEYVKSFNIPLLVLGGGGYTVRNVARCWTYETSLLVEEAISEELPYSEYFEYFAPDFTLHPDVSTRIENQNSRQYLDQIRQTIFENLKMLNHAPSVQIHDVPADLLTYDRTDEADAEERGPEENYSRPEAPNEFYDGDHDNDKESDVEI
# Sequence (Q9Y618 395-489 partner limits assumed, species assumed): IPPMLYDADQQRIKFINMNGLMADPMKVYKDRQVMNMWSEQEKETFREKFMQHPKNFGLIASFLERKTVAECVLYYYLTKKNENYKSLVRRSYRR
# assay-notes: HDAC biochemical activity measurement (fluorescent substrate deacetylation);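 further: fluorogenic acetyl-lysine substrate (20 µM) deacetylated by HDAC3, then developer added for 15 min at room temperature, release of fluorophore read at excitation 360 nm, emission 460 nm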
# measurement-conditions: read-out: IC50 HDAC3; HDAC3; 37° C. 30 minutes
pIC50: −log10 of the molar value.
Values of pIC50 greater than or equal to 7 map to Y; values below map to N.

Example entries and their recorded answers appear below.
C/C=C1\NC(=O)c2cc(SC)cc(n2)CNC(=O)C[C@@H](/C=C/CCSC(C)=O)OC(=O)[C@H](C(C)C)NC1=O [Compound 224] :: N
C/C=C1\NC(=O)c2cc(F)cc(n2)CNC(=O)C[C@@H](/C=C/CCSC(C)=O)OC(=O)[C@H](C(C)C)NC1=O [Compound 49] :: Y

Now let's try a different one.
-- ask Textbook exercise: given the entry C/C=C1\NC(=O)c2cccc(n2)CNC(=O)C[C@@H](/C=C/CCSC(=O)CCCCCCC)OC(=O)[C@H](Cc2ccccc2)NC1=O [Compound 14] , state whether its pIC50 is greater than or equal to 7.
-- reply Y
